System: primary human hepatic stellate cells (donor 1)
RUN DESCRIPTION: scaled lipid accumulation score (0 = DMSO-like, 1 = nortriptyline-like); higher = stronger HSC inactivation (lipid re-accumulation), active = hit call of the paper
CONDITION: library stock concentration: 10 mM; 48 h
About 620 (11%) of roughly 5,800 compounds showed activity.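 The calls were made as follows: active = score above a cut-off or among the top three wells of a plate; in these data no inactive exceeds 0.85.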 The entries come from a sample that favours actives as a whole.
API: response.call in TRUE for active, FALSE for inactive

CC(=O)O[C@H]1Cc2ccccc2N(C(N)=O)c2ccccc21    FALSE

Exercise: Fill in: this test's call for Cc1ccc(/C=N/NC(=O)c2ccccc2Oc2ccccc2)o1 is ___
Key: FALSE

Exercise: Also, CN(C)C/C=C/C(=O)Nc1cc2c(Nc3ccc(F)c(Cl)c3)ncnc2cc1O[C@H]1CCOC1 please.
Key: FALSE

Exercise: Please do the same for CC(C)(C)NCC(O)c1ccc(O)c(CO)c1 (stereo unspecified) as well.
Key: FALSE

Exercise: Try this molecule next: CN1CCC(=C2c3ccccc3CCc3cccnc32)CC1 [Azatadine dimaleate]
Key: FALSE

Exercise: How about C=C[C@@]1(C)C[C@@H](OC(=O)CS[C@@H]2C[C@H]3CC[C@@H](C2)N3C)[C@@]2(C)[C@@H]3C(=O)CC[C@@]3(CC[C@@H]2C)[C@@H](C)[C@@H]1O ?
Key: TRUE

Exercise: Quick one: CC1CCN(c2cc(N3CCN(C)CC3)ccc2NC(=O)c2cc(C#N)c[nH]2)CC1
Key: TRUE

From: the supplement of paper PMC9135407
